This collection of values is drawn from ChEMBL document CHEMBL3390839.

Test system: Liver microsome
Method: Intrinsic clearance in human liver microsomes measured pre ug of protein
Type: ADME
Endpoint Name: CLH (µL/min)

Use the examples below as a reference point.
COc1cc(Nc2nc3n(n2)CC(C)(O)CN3Cc2ccccc2)ccc1-n1cnc(C)c1 (stereo not given) : 17
COc1cc(Nc2nc3n(n2)CCCN3CCC2CC2)ccc1-n1cnc(C)c1 : 105

P. COc1cc(Nc2nc3n(n2)CCC(=O)N3c2ccccc2)ccc1-n1cnc(C)c1
Q. COc1cc(Nc2nc3n(n2)CCC(=O)N3Cc2ccccc2C)ccc1-c1cnnc(C)c1
R. COc1cc(Nc2nc3n(n2)CC(O)CN3Cc2ccccc2)ccc1-n1cnc(C)c1 (stereo not given)
Exercise: Ascending by CLH, please: list the compounds accordingly. Enter labels, ranked according to the request.
Key: R, P, Q
(R: 19 µL/min, P: 36 µL/min, Q: 109 µL/min)

====

Method: Permeability across apical to basolateral side in human Caco2 cells
Format: ADME, cell-based
Measurement Context: Caco-2, read-out: permeability
Endpoint Name: Papp A→B (×10⁻⁶ cm/s)

Would you please look over these solved cases?
COc1cc(Nc2nc3n(n2)CCC(=O)N3Cc2ccccc2C)ccc1-c1ccnnc1 : 18
COc1cc(Nc2nc3n(n2)CCC(=O)N3Cc2ccccc2C)ccc1-c1noc(C)n1 : 38
COc1cc(Nc2nc3n(n2)CCC(=O)N3Cc2ccccc2)ccc1-n1cnc(C)c1 : 36

P. COc1cc(Nc2nc3n(n2)C(c2ccccc2)CCN3CC(C)(C)O)ccc1-n1cnc(C)c1 (stereo not drawn)
Q. COc1cc(Nc2nc3n(n2)CCC(=O)N3Cc2ccccc2C)ccc1-c1cnnc(C)c1
R. COc1cc(Nc2nc3n(n2)C(C)CC(=O)N3Cc2ccccc2)ccc1-n1cnc(C)c1 (stereo in doubt; 19B)
S. COc1cc(Nc2nc3n(n2)C(C)CC(=O)N3CC2CC(F)(F)C2)ccc1-n1cnc(C)c1 (stereo not drawn)
Exercise: Rank items: key Papp A→B, increasing. Please list each label once, in the requested order.
Key: Q, R, P, S

====

Reported IC50 values for the following compounds.
Target: Voltage-gated inwardly rectifying potassium channel KCNH2 (Homo sapiens)
Sequence (Q12809 whole entry): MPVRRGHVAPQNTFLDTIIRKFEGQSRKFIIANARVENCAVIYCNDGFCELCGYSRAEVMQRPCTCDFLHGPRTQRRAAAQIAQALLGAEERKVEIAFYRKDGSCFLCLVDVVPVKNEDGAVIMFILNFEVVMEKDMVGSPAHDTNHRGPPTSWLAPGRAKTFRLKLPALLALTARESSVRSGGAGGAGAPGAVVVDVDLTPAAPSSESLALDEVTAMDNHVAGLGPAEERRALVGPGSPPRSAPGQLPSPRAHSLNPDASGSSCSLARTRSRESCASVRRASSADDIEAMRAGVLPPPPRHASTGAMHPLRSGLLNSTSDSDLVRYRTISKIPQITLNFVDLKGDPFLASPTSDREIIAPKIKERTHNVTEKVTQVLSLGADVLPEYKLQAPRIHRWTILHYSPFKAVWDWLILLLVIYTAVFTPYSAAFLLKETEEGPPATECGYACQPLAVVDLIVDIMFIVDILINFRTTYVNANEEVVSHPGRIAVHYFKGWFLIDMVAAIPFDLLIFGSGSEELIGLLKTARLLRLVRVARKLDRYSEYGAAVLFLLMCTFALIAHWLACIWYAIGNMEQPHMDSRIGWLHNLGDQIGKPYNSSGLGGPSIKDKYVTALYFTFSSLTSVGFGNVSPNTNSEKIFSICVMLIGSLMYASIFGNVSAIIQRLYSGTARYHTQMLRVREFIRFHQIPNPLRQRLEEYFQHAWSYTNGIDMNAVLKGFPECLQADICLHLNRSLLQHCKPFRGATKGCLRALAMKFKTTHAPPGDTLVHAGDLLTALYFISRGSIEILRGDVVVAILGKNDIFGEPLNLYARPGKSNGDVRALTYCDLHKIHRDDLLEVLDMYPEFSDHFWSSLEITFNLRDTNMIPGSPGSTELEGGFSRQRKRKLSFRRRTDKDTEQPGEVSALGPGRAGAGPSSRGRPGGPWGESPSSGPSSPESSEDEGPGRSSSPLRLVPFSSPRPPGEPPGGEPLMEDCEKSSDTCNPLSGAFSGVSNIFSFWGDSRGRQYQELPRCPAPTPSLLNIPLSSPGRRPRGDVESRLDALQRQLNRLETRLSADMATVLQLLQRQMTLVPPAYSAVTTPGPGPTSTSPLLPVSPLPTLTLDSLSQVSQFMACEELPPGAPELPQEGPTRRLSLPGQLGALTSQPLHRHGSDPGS
Method: Inhibition of human ERG
Report only the number, with the unit µM understood.

COc1cc(Nc2nc3n(n2)CCC(=O)N3Cc2ccccc2)ccc1-n1cnc(C)n1 : 17
COc1cc(Nc2nc3n(n2)C(C2CC2)CCN3CC(C)(C)O)ccc1-n1cnc(C)c1 (stereo in doubt; 42B) : 33
COc1cc(Nc2nc3n(n2)CCCN3Cc2ccccc2)ccc1-n1cnc(C)c1 : 5
COc1cc(Nc2nc3n(n2)CCC(=O)N3Cc2ccccc2C)ccc1-c1ccnnc1 : 33
COc1cc(Nc2nc3n(n2)CCCN3CCC2CC2)ccc1-n1cnc(C)c1 : 6.2

// field: IC50; key: COc1cc(Nc2nc3n(n2)CC(O)CN3Cc2ccccc2)ccc1-n1cnc(C)c1 (centres undefined) ; value = 28

Form field IC50, entry COc1cc(Nc2nc3n(n2)CC(C)(O)CN3Cc2ccccc2)ccc1-n1cnc(C)c1 (centres undefined) : 23

# IC50 of COc1cc(Nc2nc3n(n2)CCC(=O)N3c2ccccc2)ccc1-n1cnc(C)c1 = 33

So, COc1cc(Nc2nc3n(n2)CCC(=O)N3Cc2ccccc2C)ccc1-n1cnc(C)c1 ? Its IC50 was 13

====

Method: Solubility of the compound
Format: physicochemical
Measurement Context: read-out: solubility
Endpoint Name: solubility (µM)

# example entries with known answers
COc1cc(Nc2nc3n(n2)CCC(=O)N3c2ccccc2)ccc1-n1cnc(C)c1 : 2
COc1cc(Nc2nc3n(n2)CCCN3CCC2CC2)ccc1-n1cnc(C)c1 : 17
COc1cc(Nc2nc3n(n2)C(C)CC(=O)N3CC2CC(F)(F)C2)ccc1-n1cnc(C)c1 (centres undefined) : 4
COc1cc(Nc2nc3n(n2)C(C2CC2)CCN3CC(C)(C)O)ccc1-n1cnc(C)c1 (stereo in doubt; 42B) : 42

A. COc1cc(Nc2nc3n(n2)CCCN3Cc2ccccc2)ccc1-n1cnc(C)c1
B. COc1cc(Nc2nc3n(n2)C(C)CCN3CC(C)(C)O)ccc1-n1cnc(C)c1 (centres undefined)
C. COc1cc(Nc2nc3n(n2)CCC(=O)N3Cc2ccccc2)ccc1-n1cnc(C)n1
D. COc1cc(Nc2nc3n(n2)CC(C)C(=O)N3Cc2ccccc2)ccc1-n1cnc(C)c1 (centres undefined)
Exercise: Order each entry by recorded solubility, climbing from the minimum. Respond with an ordered listing of the labels, as requested.
Key: D, C, A, B
(D: 2 µM, C: 8 µM, A: 49 µM, B: 330 µM)

A. COc1cc(Nc2nc3n(n2)C(C2CC2)CCN3CCC(C)(C)O)ccc1-n1cnc(C)c1 (centres undefined)
B. COc1cc(Nc2nc3n(n2)CC(O)CN3Cc2ccccc2)ccc1-n1cnc(C)c1 (centres undefined)
C. COc1cc(Nc2nc3n(n2)CCC(O)N3Cc2ccccc2)ccc1-n1cnc(C)c1 (centres undefined)
Exercise: Place the items in sequence of falling solubility. Please list the labels according to the requested order.
Key: B, C, A

====

Target: Gamma-secretase
Method: Inhibition of human gamma-secretase in HEK-APPswe cells assessed as amyloid beta42 production by electrochemiluminescence assay
Format: cell-based
Endpoint Name: pIC50

COc1cc(Nc2nc3n(n2)CCC(=O)N3Cc2ccccc2)ccc1-n1cnc(C)n1 : 7
COc1cc(Nc2nc3n(n2)CCC(=O)N3Cc2ccccc2C)ccc1-c1cnc(C)nc1 : 7.2
COc1cc(Nc2nc3n(n2)CCCC3c2ccc(F)cc2)ccc1-c1nc(C)no1 (stereo not given) : 6.8
COc1nc(Nc2nc3n(n2)CCCC3c2ccc(F)cc2)ccc1-n1cnc(C)c1 (stereo not given) : 7.2
COc1cc(Nc2nc3n(n2)CCCC3c2ccc(F)cc2)ccc1-n1cnc(C)n1 (stereo in doubt; 14B) : 7

====

Method: Solubility of the compound
Type: physicochemical
Measurement Context: read-out: solubility
Endpoint Name: solubility

COc1cc(Nc2nc3n(n2)CCC(=O)N3Cc2ccccc2Cl)ccc1-n1cnc(C)n1 : < 1 µM
COc1cc(Nc2nc3n(n2)CCC(=O)N3Cc2ccccc2C)ccc1-c1cnnc(C)c1 : < 1 µM

So for COc1cc(Nc2nc3n(n2)CCC(=O)N3Cc2ccccc2C)ccc1-n1cnc(C)c1 , the logged solubility turned out to be < 1 µM
